FYI, the data here is from patent US4880820A.

- Tested on: Herpes simplex virus type 1 (HSV-1), strain Schooler
- ASSAY: Parenteral (subcutaneous) treatment of Herpes simplex virus type 1 infection in mice
- Assay type: in vivo, ICR/Ha mice
- CONDITION_CONTEXT: s.c., 125 μg/dose twice daily for 4 days, 12.5 mg/kg/day; ^3 (B, acyclovir): not statistically different from placebo
# maps each entry to its Avg. Survival Time
Give your result in days as a bare value.

Guide cases for Avg. Survival Time, answers given:
- COMPOUND: "Nc1nc2c(ncn2COC[C@@H](O)CO)c(=O)[nH]1"
  MEASUREMENT_TARGET: "Herpes simplex virus type 1 (HSV-1), strain Schooler"
  VALUE_UNIT: "days"
  Avg. Survival Time: 10.7
- COMPOUND: "Nc1nc2c(ncn2COCCO)c(=O)[nH]1 [Acyclovir, 9-(2-hydroxyethoxymethyl)guanine]"
  MEASUREMENT_TARGET: "Herpes simplex virus type 1 (HSV-1), strain Schooler"
  VALUE_UNIT: "days"
  Avg. Survival Time: 7.0
- COMPOUND: "Nc1nc2c(ncn2COC[C@H](O)CO)c(=O)[nH]1"
  MEASUREMENT_TARGET: "Herpes simplex virus type 1 (HSV-1), strain Schooler"
  VALUE_UNIT: "days"
  Avg. Survival Time: 7.5

q: # input compound: Nc1nc2c(ncn2COCC(O)CO)c(=O)[nH]1 (racemic) ; wanted: its Avg. Survival Time
a: 8.6
